assay: Pharmacokinetic analysis Protocol 2 (blood and brain); assay type: in vivo, female Balb C mice; conditions: female, Balb C, mouse, brain / whole blood, intravenous; PK protocol 2, 2 mg/kg i.v.; read-out: Ri i.v. (partition coefficient)
value.type: Kp
Answers are plain numbers.

For reference, reported Kp for CO[C@H]1C[C@@H]2CC[C@@H](C)[C@@](O)(O2)C(=O)C(=O)N2CCCC[C@H]2C(=O)O[C@H]([C@H](C)C[C@@H]2CC[C@@H](O)[C@H](OC)C2)CC(=O)[C@H](C)/C=C(\C)[C@@H](O)[C@@H](OC)C(=O)[C@H](C)C[C@H](C)/C=C/C=C/C=C/1C [Rapamycin] stands at 0.255

====

test system: panel of 12 human tumour cell lines; experiment: Monolayer proliferation assay Protocol 1, mean across the cell lines tested; assay type: cell-based
value.type: IC50 (µM)
One number for each entry, in µM.

For this compound ( COC1CC2CCC(C)C(O)(O2)C(=O)C(=O)N2CCCCC2C(=O)OC(C(C)CC2CCC(O)CC2)CC(=O)C(C)C=C(C)C(O)C(OC)C(=O)C(C)CC(C)C=CC=CC=C1C (stereo not shown) ), measured IC50 is 3.25

====

test: Caco-2 permeation assay; settings: human, Caco-2, pH 7.4
value.type: Papp at 1 h, 0.01 mM (×10⁻⁶ cm/s)
One number for each entry, in ×10⁻⁶ cm/s.

Reported Papp at 1 h, 0.01 mM of CO[C@H]1CC2CC[C@@H](C)[C@@](O)(O2)C(=O)C(=O)N2CCCC[C@H]2C(=O)O[C@H]([C@@H](C)CC2CCC(O)CC2)CC(=O)[C@@H](C)/C=C(\C)[C@H](O)[C@H](O)C(=O)[C@@H](C)C[C@H](C)/C=C/C=C/C=C/1C (stereo partly shown) [27-O-desmethyl-39-desmethoxyrapamycin] : 0.4

Cited source: patent US20100061994A1
